This section presents compounds with their documented Dmax values.
Target: HiBit-BRG1 (Homo sapiens, UniProt P51532)
Construct: expressed in transfected cells
Sequence (P51532 whole entry): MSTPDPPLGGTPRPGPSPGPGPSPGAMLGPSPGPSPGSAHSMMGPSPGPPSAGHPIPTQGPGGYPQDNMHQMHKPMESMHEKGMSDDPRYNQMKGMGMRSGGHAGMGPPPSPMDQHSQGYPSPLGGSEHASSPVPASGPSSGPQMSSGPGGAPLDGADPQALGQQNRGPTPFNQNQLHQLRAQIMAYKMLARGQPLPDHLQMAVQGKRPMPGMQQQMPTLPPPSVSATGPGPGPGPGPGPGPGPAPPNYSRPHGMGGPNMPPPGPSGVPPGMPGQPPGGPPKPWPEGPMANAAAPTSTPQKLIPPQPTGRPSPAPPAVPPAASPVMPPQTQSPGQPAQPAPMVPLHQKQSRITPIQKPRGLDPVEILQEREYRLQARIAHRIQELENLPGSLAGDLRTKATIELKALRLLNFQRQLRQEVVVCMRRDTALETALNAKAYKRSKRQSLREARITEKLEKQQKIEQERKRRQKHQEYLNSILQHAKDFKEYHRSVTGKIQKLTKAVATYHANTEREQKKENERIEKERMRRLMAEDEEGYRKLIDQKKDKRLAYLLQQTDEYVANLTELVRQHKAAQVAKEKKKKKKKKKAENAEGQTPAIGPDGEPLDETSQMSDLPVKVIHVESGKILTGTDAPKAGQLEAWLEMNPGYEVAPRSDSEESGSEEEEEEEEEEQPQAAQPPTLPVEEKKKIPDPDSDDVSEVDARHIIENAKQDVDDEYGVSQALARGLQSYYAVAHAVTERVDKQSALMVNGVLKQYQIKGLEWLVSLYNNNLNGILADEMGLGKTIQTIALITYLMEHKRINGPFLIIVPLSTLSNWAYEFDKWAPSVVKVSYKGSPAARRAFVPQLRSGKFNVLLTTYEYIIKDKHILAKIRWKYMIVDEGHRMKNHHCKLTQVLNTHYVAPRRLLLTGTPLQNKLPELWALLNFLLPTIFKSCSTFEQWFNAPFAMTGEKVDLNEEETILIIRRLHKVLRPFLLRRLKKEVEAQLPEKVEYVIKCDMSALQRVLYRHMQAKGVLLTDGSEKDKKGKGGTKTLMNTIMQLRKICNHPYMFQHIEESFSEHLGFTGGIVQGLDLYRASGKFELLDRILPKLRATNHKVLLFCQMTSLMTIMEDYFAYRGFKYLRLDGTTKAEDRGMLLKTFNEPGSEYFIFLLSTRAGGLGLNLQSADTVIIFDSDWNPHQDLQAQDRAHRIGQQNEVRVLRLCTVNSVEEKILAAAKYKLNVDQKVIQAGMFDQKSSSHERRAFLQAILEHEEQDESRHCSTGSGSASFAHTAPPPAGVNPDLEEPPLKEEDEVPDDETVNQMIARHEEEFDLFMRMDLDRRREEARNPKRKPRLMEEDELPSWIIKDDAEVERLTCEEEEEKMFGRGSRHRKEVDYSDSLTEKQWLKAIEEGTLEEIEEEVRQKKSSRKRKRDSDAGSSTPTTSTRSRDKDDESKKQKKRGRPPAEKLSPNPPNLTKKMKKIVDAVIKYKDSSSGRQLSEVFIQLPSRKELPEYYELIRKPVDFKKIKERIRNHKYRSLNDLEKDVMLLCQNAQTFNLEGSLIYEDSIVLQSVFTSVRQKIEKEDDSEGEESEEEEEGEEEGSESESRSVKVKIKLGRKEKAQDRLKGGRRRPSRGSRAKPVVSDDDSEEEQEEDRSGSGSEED
Assay: HiBit-BRG1 cell-based degradation assay (Nano-Glo HiBiT Lytic Detection)
Conditions: HeLa cells expressing HiBit-BRG1 and LgBit, 24 h; read-out: BRG1 HiBit Degradation Maximum (%)

Some compounds with known Dmax results, for comparison:
INSERT INTO assay_data (compound, property, test_value) VALUES
  ('CN(CCNC(=O)COc1cccc2c1C(=O)N(C1CCC(=O)NC1=O)C2=O)CCNC(=O)CN1CCN(c2cc(-c3ccccc3O)nnc2N)CC1 (centres unmarked) [Compound 104]', 'Dmax', '< 50%'),
  ('Cc1ncsc1-c1ccc(CNC(=O)[C@@H]2C[C@@H](O)CN2C(=O)[C@@H](NC(=O)CCCCCCCCCCCCCCC(=O)NCc2ccc(CCOc3cc(-c4ccccc4O)nnc3N)cc2)C(C)(C)C)cc1 [Compound 40]', 'Dmax', '< 50%'),
  ('Cc1ncsc1-c1ccc(CNC(=O)[C@@H]2C[C@@H](O)CN2C(=O)[C@@H](NC(=O)CCN2CC(OC3CCN(C(=O)c4ccc(CCOc5cc(-c6ccccc6O)nnc5N)cc4)CC3)C2)C(C)(C)C)cc1 [Compound 238]', 'Dmax', '< 50%');

Prompt: Consider the compound shown here: CN(CCNC(=O)c1ccc(CCOc2cc(-c3ccccc3O)nnc2N)cc1)CCNc1cccc2c1C(=O)N(C1CCC(=O)NC1=O)C2=O (centres unmarked) [Compound 61] What is its recorded Dmax?
Completion: < 50%

Prompt: Consider the compound shown here: Cc1ncsc1-c1ccc(CNC(=O)[C@@H]2C[C@@H](O)CN2C(=O)[C@@H](NC(=O)CCN2CCC(O)(C(=O)NCc3ccc(CCOc4cc(-c5ccccc5O)nnc4N)cc3)CC2)C(C)(C)C)cc1 [Compound 185] What is its recorded Dmax?
Completion: < 50%

* * *

This section presents molecules with their documented Dmax values.
Molecular target: HiBit-BRG1 (Homo sapiens)
Construct: expressed in transfected cells
Test: HiBit-BRG1 cell-based degradation assay (Nano-Glo HiBiT Lytic Detection)
Conditions: HeLa cells expressing HiBit-BRG1 and LgBit, 24 h; read-out: BRG1 HiBit Degradation Maximum (%)

Some molecules with known Dmax results, for comparison:
INSERT INTO results (molecule, test_value) VALUES
  ('Cc1ncsc1-c1ccc([C@H](C)NC(=O)[C@@H]2C[C@@H](O)CN2C(=O)[C@@H](c2cc(OCCNCCC(=O)NCc3ccc(CCOc4cc(-c5ccccc5O)nnc4N)cc3)no2)C(C)C)cc1', '> 75%'),
  ('Cc1ncsc1-c1ccc(CNC(=O)[C@@H]2C[C@@H](O)CN2C(=O)[C@@H](NC(=O)CCN2C[C@@H]3CN(C(=O)c4ccc(CCOc5cc(-c6ccccc6O)nnc5N)cc4)C[C@@H]3C2)C(C)(C)C)cc1', '< 50%'),
  ('Cc1ncsc1-c1ccc(CNC(=O)[C@@H]2C[C@@H](O)CN2C(=O)[C@@H](NC(=O)CCN2CC(C3CN(C(=O)c4ccc(CCOc5cc(-c6ccccc6O)nnc5N)cc4)C3)C2)C(C)(C)C)cc1', '< 50%'),
  ('Cc1ncsc1-c1ccc([C@H](C)NC(=O)[C@@H]2C[C@@H](O)CN2C(=O)[C@@H](NC(=O)CCCCCCCCCCCCCCNCc2ccc(CCOc3cc(-c4ccccc4O)nnc3N)cc2)C(C)(C)C)cc1', '> 50%');

Prompt: Consider the molecule shown here: Nc1nnc(-c2ccccc2O)cc1OCCc1ccc(C(=O)NCCCCCCCCNC(=O)COc2cccc3c2C(=O)N(C2CCC(=O)NC2=O)C3=O)cc1 (stereo not shown) What is its recorded Dmax?
Completion: < 50%

Prompt: Consider the molecule shown here: Nc1nnc(-c2ccccc2O)cc1N1CCN(CC(=O)NCCS(=O)(=O)CCNc2cccc3c2C(=O)N(C2CCC(=O)NC2=O)C3=O)CC1 (stereo not shown) What is its recorded Dmax?
Completion: < 50%

Prompt: Consider the molecule shown here: Cc1ncsc1-c1ccc([C@H](C)NC(=O)[C@@H]2C[C@@H](O)CN2C(=O)[C@@H](c2cc(OCCN3[C@@H]4CC[C@H]3CN(C(=O)c3ccc(CCOc5cc(-c6ccccc6O)nnc5N)cc3)C4)no2)C(C)C)cc1 What is its recorded Dmax?
Completion: > 75%

Prompt: Consider the molecule shown here: Cc1ncsc1-c1ccc(CNC(=O)[C@@H]2C[C@@H](O)CN2C(=O)[C@@H](NC(=O)COCCNC(=O)c2ccc(CCOc3cc(-c4ccccc4O)nnc3N)cc2)C(C)(C)C)cc1 What is its recorded Dmax?
Completion: < 50%

Prompt: Consider the molecule shown here: CN(Cc1ccc(CCOc2cc(-c3ccccc3O)nnc2N)cc1)C(=O)CCCCOc1cccc2c1C(=O)N(C1CCC(=O)NC1=O)C2=O (stereo not shown) What is its recorded Dmax?
Completion: < 50%

Prompt: Consider the molecule shown here: Cc1ncsc1-c1ccc(CNC(=O)[C@@H]2C[C@@H](O)CN2C(=O)[C@@H](NC(=O)CCN2CCN(CCC(=O)NCc3ccc(CCOc4cc(-c5ccccc5O)nnc4N)cc3)CC2)C(C)(C)C)cc1 What is its recorded Dmax?
Completion: < 50%
